assay: collision cross section in nitrogen (drift tube, single-field); higher = larger gas-phase ion size; settings: ion type: [M-H]; ion source: ESI; ion mode: Negative;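 further: chemical standards at 10 µM analysed by drift tube IMS-QTOF MS in about 3.95 torr nitrogen, mean of duplicate injections differing ≤1%, mass error below 10 ppm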
Where a name gives a salt, the structure may show the parent alone.
observable: collision cross section in nitrogen
Record the result as number plus unit.

Sample answers from the record:
{"columns": ["compound", "collision cross section in nitrogen"],
 "data": [
  ["Cc1cc(S(=O)(=O)O)ccc1N=Nc1c(O)ccc2ccccc12 [C.I. Acid Orange 8, monosodium salt]", "187.1 Å²"],
  ["CCCCC(CC)COP(=O)(O)OCC(CC)CCCC (centres undefined) [Bis(2-ethylhexyl) phosphate]", "187 Å²"],
  ["O=C(O)c1ccc(C(=O)O)c(C(=O)O)c1", "136.9 Å²"]
]}

Query compound follows.
Ask | Entry under review: `CC(C)CC(=O)C1C(=O)c2ccccc2C1=O` . Reported collision cross section in nitrogen?
Reply | 154.2 Å²

----------
assay: collision cross section in nitrogen (drift tube, single-field); higher = larger gas-phase ion size; details: ion type: [M-H]; ion source: ESI; ion mode: Negative
Structures can show the parent of a compound that is named as a salt.
observable: collision cross section in nitrogen (Å²)
Form entry: value (Å²) — number only.

Sample answers from the record:
{"columns": ["compound", "measure_unit", "collision cross section in nitrogen"],
 "data": [
  ["CCN(CC)c1ccc2c(C)cc(=O)oc2c1 [7-Diethylamino-4-methylcoumarin]", "Å²", 159.4],
  ["Nc1ccc(N=Nc2ccccc2)c(N)n1 [Phenazopyridine hydrochloride]", "Å²", 148.1],
  ["O=C(Nc1ccc(Br)cc1)c1cc(Br)cc(Br)c1O [Tribromsalan]", "Å²", 173.7]
]}

Ask | Entry under review: O=[N+]([O-])c1ccc(O)cc1C(F)(F)F [3-(Trifluoromethyl)-4-nitrophenol] . Reported collision cross section in nitrogen?
Reply | 128.7

Ask | Also need C=C1C[C@]23C[C@@]1(O)CC[C@H]2[C@@]12C=C[C@H](O)[C@@](C)(C(=O)O1)[C@H]2[C@@H]3C(=O)O [Gibberellic acid] , thanks.
Reply | 176.4

Ask | Also need Cc1cnc(C2=NC(=O)C(C)(C(C)C)N2)c(C(=O)O)c1 (stereo not drawn) [Imazapic] , thanks.
Reply | 168.3

Ask | Also need Cc1cc(C)c(C(=O)O)c(C)c1 [2,4,6-Trimethylbenzoic acid] , thanks.
Reply | 140.5

Ask | Also need O=c1[nH]sc2ccccc12 [1,2-Benzisothiazolin-3-one] , thanks.
Reply | 127.2

----------
# maps each entry to its collision cross section in nitrogen
assay: collision cross section in nitrogen (drift tube, single-field); higher = larger gas-phase ion size; conditions: ion type: [M+Na]; ion source: ESI; ion mode: Positive
Where a name gives a salt, the structure may show the parent alone.
Form entry: value (Å²) — number only.

Sample answers from the record:
{"columns": ["compound", "experimental_result"],
 "data": [
  ["CC(C)C[C@H](NC(=O)OCC1c2ccccc2-c2ccccc21)C(=O)O", 184.7],
  ["COc1ccc([C@@H]2Sc3ccccc3N(CCN(C)C)C(=O)[C@@H]2OC(C)=O)cc1 [Diltiazem hydrochloride]", 203.2],
  ["CCCCCCCCOC(=O)CCCCCCCCC(=O)OCCCCCCCC [Dioctyl sebacate]", 225.4]
]}

Ask | Entry under review: `N=C(N)NC(=N)NCCc1ccccc1` . Reported collision cross section in nitrogen?
Reply | 148.3

Ask | Also need NC(=O)N1c2ccccc2CC(=O)c2ccccc21 [Oxcarbazepine] , thanks.
Reply | 162.4

Ask | Also need CC1(C)CCC(=Cc2ccc(Cl)cc2)C1(O)Cn1cncn1 (stereo unspecified) , thanks.
Reply | 189

Ask | Also need `CCOP(=O)(OCC)OC(=CCl)c1ccc(Cl)cc1Cl` , thanks.
Reply | 181

Ask | Also need CCCCCCCCO[C@@H]1O[C@H](CO)[C@@H](O)[C@H](O)[C@H]1O [Octyl beta-D-glucopyranoside] , thanks.
Reply | 181.2

Ask | Also need `CCSCc1ccccc1OC(=O)NC` , thanks.
Reply | 153.7

Ask | Also need `O=C(Nc1ccccc1)N(Cc1ccc(Cl)cc1)C1CCCC1` , thanks.
Reply | 192.8

Ask | Also need `CCN(CC)c1ccccc1` , thanks.
Reply | 132.8

Ask | Also need `C#CCOC(=O)[C@@H](C)Oc1ccc(Oc2ncc(Cl)cc2F)cc1` , thanks.
Reply | 176.2

Ask | Also need CC(C)(C)NC(=O)[C@H]1CC[C@H]2[C@@H]3CC[C@H]4NC(=O)C=C[C@]4(C)[C@H]3CC[C@]12C [Finasteride] , thanks.
Reply | 226.8

Ask | Also need `CCCCOCCOCCOCCOCCO` , thanks.
Reply | 160.4

Ask | Also need `C[C@H]1O[C@@H](O[C@H]2[C@@H](O)C[C@H](O[C@H]3[C@@H](O)C[C@H](O[C@H]4CC[C@@]5(C)[C@H](CC[C@@H]6[C@@H]5C[C@@H](O)[C@]5(C)[C@@H](C7=CC(=O)OC7)CC[C@]65O)C4)O[C@@H]3C)O[C@@H]2C)C[C@H](O)[C@@H]1O` , thanks.
Reply | 276.8

Ask | Also need `CC1(C)[C@H](/C=C(\Cl)C(F)(F)F)[C@@H]1C(=O)O[C@@H](C#N)c1cccc(Oc2ccccc2)c1` , thanks.
Reply | 190.4

----------
assay: collision cross section in nitrogen (drift tube, single-field); higher = larger gas-phase ion size; conditions: ion type: [M+H]; ion source: ESI; ion mode: Positive
Where a name gives a salt, the structure may show the parent alone.
observable: collision cross section in nitrogen (Å²)
Form entry: value (Å²) — number only.

Sample answers from the record:
{"columns": ["compound", "measure_unit", "experimental_result"],
 "data": [
  ["OCCOCCN1CCN(C(c2ccccc2)c2ccc(Cl)cc2)CC1 (configuration not stated) [Hydroxyzine hydrochloride]", "Å²", 197.2],
  ["CCOP(=S)(OCC)Oc1cc(C)nc(C(C)C)n1 [Diazinon]", "Å²", 173.7]
]}

Ask | Entry under review: C[C@H]1C(=O)O[C@@H]2CCN3CC=C(COC(=O)[C@](C)(O)[C@]1(C)O)[C@H]23 [Monocrotaline] . Reported collision cross section in nitrogen?
Reply | 175.3

Ask | Also need CCN(CC)c1ccc(C=O)c(O)c1 [4-(Diethylamino)salicylaldehyde] , thanks.
Reply | 143.7

Ask | Also need O=c1c(-c2ccc(O)cc2)coc2cc(O)cc(O)c12 [Genistein] , thanks.
Reply | 160.3

Ask | Also need C[C@@H]1C[C@H]2[C@@H]3CCC4=CC(=O)C=C[C@]4(C)[C@@]3(F)[C@@H](O)C[C@]2(C)[C@@]1(O)C(=O)CO [Dexamethasone] , thanks.
Reply | 177.6

Ask | Also need CC(CCc1ccccc1)NCC(O)c1ccc(O)c(C(N)=O)c1 (configuration not stated) [Labetalol hydrochloride] , thanks.
Reply | 175.2

Ask | Also need CCNc1nc(Cl)nc(NC(C)C)n1 [Atrazine] , thanks.
Reply | 149.5

----------
# maps each entry to its collision cross section in nitrogen
test: collision cross section in nitrogen (drift tube, single-field); higher = larger gas-phase ion size; conditions: ion type: [M+H]; ion source: APCI; ion mode: Positive
Structures can show the parent of a compound that is named as a salt.
Record the result as number plus unit.

Ask | Entry under review: Oc1ccc2ccccc2c1N=Nc1ccccc1 [C.I. Solvent Yellow 14] . Reported collision cross section in nitrogen?
Reply | 156.9 Å²

Ask | Also need Nc1c2ccccc2nc2ccccc12 [9-Aminoacridine hydrochloride monohydrate] , thanks.
Reply | 138.8 Å²

Ask | Also need c1cc(N(CC2CO2)CC2CO2)ccc1OCC1CO1 (configuration not stated) [4-(Diglycidylamino)phenyl glycidyl ether] , thanks.
Reply | 167.5 Å²

Ask | Also need CCn1cc(C(=O)O)c(=O)c2cc3c(cc21)OCO3 [Oxolinic acid] , thanks.
Reply | 152.6 Å²

Ask | Also need Cc1cc(OC(=O)N(C)C)nn1C(=O)N(C)C [Dimetilan] , thanks.
Reply | 152.5 Å²

Ask | Also need CN(N=O)c1ccccc1 [N-Methyl-N-nitrosoaniline] , thanks.
Reply | 124.5 Å²

Ask | Also need O=c1c2ccccc2oc2ccccc12 [Xanthone] , thanks.
Reply | 135.2 Å²

Ask | Also need C1CCC(NC2CCCCC2)CC1 [Dicyclohexylamine] , thanks.
Reply | 147.6 Å²

Ask | Also need O=Nc1ccc(Nc2ccccc2)cc1 [4-Nitrosodiphenylamine] , thanks.
Reply | 144.3 Å²

Ask | Also need `Cc1nc(-c2ccccn2)ncc1C(=O)Nn1cc(C)c2cc(F)ccc21` , thanks.
Reply | 184.3 Å²

Ask | Also need Nc1nc(Cl)nc2c1ncn2[C@H]1C[C@H](O)[C@@H](CO)O1 [Cladribine] , thanks.
Reply | 157.2 Å²

Ask | Also need CCCC1COC(Cn2cncn2)(c2ccc(Cl)cc2Cl)O1 (configuration not stated) [Propiconazole] , thanks.
Reply | 180.9 Å²

Ask | Also need Cc1cc(N=Nc2ccccc2C)ccc1N [o-Aminoazotoluene] , thanks.
Reply | 155.9 Å²

Ask | Also need CN1COCN(Cc2cnc(Cl)s2)C1=N[N+](=O)[O-] [Thiamethoxam] , thanks.
Reply | 159.9 Å²

Ask | Also need CCOc1ccc(NC(N)=O)cc1 [Dulcin] , thanks.
Reply | 144.5 Å²
